# MEASURED ON: Bromodomain-containing protein 4 (Homo sapiens, UniProt O60885)
# TEST DETAILS: Inhibition of BRD4 (unknown origin)
pIC50: recorded values
// pIC50 is dimensionless: -log10 of concentration (M)

Look over these answered cases.
Cc1nnn(C)c1-c1cc2c(cc1F)c1ncc(C(C)(C)O)cc1n2[C@H](c1ccccc1)C1CCOCC1 :: 8.89
[2H]C([2H])([2H])c1nnn(C)c1-c1cc2c(cc1F)c1ncc(C(C)(C)O)cc1n2[C@H](c1cc(C)on1)C1CCOCC1 :: 9.22

Hey, Bromodomain-containing protein 4 (Homo sapiens, UniProt O60885) data for [2H]C([2H])([2H])c1nnn(C)c1-c1cc2c(cc1F)c1ncc(C(C)(C)O)cc1n2[C@@H](CCC)c1ncccc1F : pIC50 came out at 9.30

Hey, Bromodomain-containing protein 4 (Homo sapiens, UniProt O60885) data for [2H]C([2H])([2H])c1nnn(C)c1-c1cc2c(cc1F)c1ncc(C(C)(C)O)cc1n2[C@H](c1ccccc1)C1CCOCC1 : pIC50 came out at 9.40

Hey, Bromodomain-containing protein 4 (Homo sapiens, UniProt O60885) data for [2H]C([2H])([2H])c1nnn(C)c1-c1cc2c(cc1F)c1ncc(C(C)(C)O)cc1n2[C@H](c1ncccc1F)C1CCOCC1 : pIC50 came out at 9.22

Hey, Bromodomain-containing protein 4 (Homo sapiens, UniProt O60885) data for Cc1nnn(C)c1-c1cnc2c3ccc(C(C)(C)O)cc3n([C@H](c3ccccc3)C3CCOCC3)c2c1 [EZOBRESIB] : pIC50 came out at 9.10

Hey, Bromodomain-containing protein 4 (Homo sapiens, UniProt O60885) data for Cc1nnn(C)c1-c1ccc2c3ncc(C(C)(C)O)cc3n([C@H](c3ccccc3)C3CCOCC3)c2c1F : pIC50 came out at 8.40

Hey, Bromodomain-containing protein 4 (Homo sapiens, UniProt O60885) data for Cc1nnn(C)c1-c1cc(F)c2c3ncc(C(C)(C)O)cc3n([C@H](c3ccccc3)C3CCOCC3)c2c1 : pIC50 came out at 9.15

Hey, Bromodomain-containing protein 4 (Homo sapiens, UniProt O60885) data for Cc1nnn(C)c1-c1ccc2c3ncc(C(C)(C)O)cc3n([C@H](c3ccccc3)C3CCOCC3)c2c1 : pIC50 came out at 9.22
